I'd be grateful if you could share measured pIC50 for these entries.
system.tested: S. aureus AgrC in group-III (Staphylococcus aureus)
test.method.notes: AgrC inhibition YFP reporter gene assay, S. aureus group-III (AH1747)
Type: cell-based
condition.set: read-out: Group-III IC50, 95% CI; YFP reporter strain, 24 h; value (95% CI)
Positions of bridges follow the written chain, without caps; N, C: chain ends. Non-standard residues stand in square brackets, D forms with d. Residues, ends and D or L forms follow the SMILES beside them. Dap = NC[CH](N)C(=O)O; Aoc = NCCCCCCCC(=O)O
A value of pIC50 is the negative decimal logarithm of a concentration given in moles per litre.

Requested field: pIC50. Item: CC(=O)N[C@H]1CNC(=O)[C@H](Cc2ccccc2)NC(=O)[C@H](Cc2ccccc2)NC(=O)CCCCCCCCNC1=O [n8FF amide]
5.58

Requested field: pIC50. Item: CC(=O)NC1CNC(=O)C(Cc2ccccc2)NC(=O)C(Cc2ccccc2)NC(=O)CCCCCCCNC1=O (stereo not drawn) [n7FF amide] (Ac-[Dap][Aoc]FF; lactam 1-C; configuration not given here)
6.24

Requested field: pIC50. Item: CC(=O)NC1CSC(=O)C(Cc2ccccc2)NC(=O)C(Cc2ccccc2)NC(=O)CCCCCCCCNC1=O (stereo not drawn) [n8FF]
6.90

All values here come from patent US12139464B2.
